tested on: SNB-19; experiment: NCI tumour cell line growth inhibition, 48 h
The source made the active and inactive calls. Cut-off read from the data, not from the text of the source: active = GI50 up to about 1.1 µM and inactive = higher.
quantity: GI50

// assay SNB-19, entry CC(C)(C)OC(=O)NCCC(=O)NC1(c2cc3ccccc3s2)CCCCC1 , GI50 value = 17.4 µM (inactive)

// assay SNB-19, entry CC(=O)OCc1nnn2c1C(OC(C)=O)CC2 (stereo unspecified) , GI50 value = > 100 µM (inactive)

// assay SNB-19, entry OC(c1ccccc1)(c1ccccc1)c1cccnc1 , GI50 value = > 100 µM (inactive)

// assay SNB-19, entry CC1(C)C[C@H](O)[C@H](O)[C@]23C(=O)O[C@H](O)[C@H]2C(C=O)=CC[C@@H]13 , GI50 value = > 100 µM (inactive)

// assay SNB-19, entry Cc1cn(CCCCC2=NCCCN2)c(=O)[nH]c1=O , GI50 value = > 52.8 µM (inactive)

// assay SNB-19, entry O=C1OCc2c1cc1cc3c(cc1c2-c1ccc2c(c1)OCO2)OCO3.O=C1OCc2cc3cc4c(cc3c(-c3ccc5c(c3)OCO5)c21)OCO4 , GI50 value = 30 µM (inactive)

// assay SNB-19, entry c1ccc(C2N=C(c3ccccn3)C(c3ccccn3)=NC2c2ccccc2)cc1 (stereo unspecified) , GI50 value = 19.1 µM (inactive)

// assay SNB-19, entry O=C1c2ccccc2-c2cccc3ccc(Cc4ccc5ccccc5c4)c1c23 , GI50 value = > 100 µM (inactive)

// assay SNB-19, entry O=C(O/C(=C(/N=N/c1ccccc1)c1ccccc1)c1ccccc1)c1ccccc1 , GI50 value = > 100 µM (inactive)

// assay SNB-19, entry O=C(CC(O)(C(F)(F)F)C(F)(F)F)C(c1ccccc1)C(O)(C(F)(F)F)C(F)(F)F (stereo unspecified) , GI50 value = 18.3 µM (inactive)

// assay SNB-19, entry O=[N+]([O-])c1ccc(/N=N/N2CCCC2)cc1 , GI50 value = > 100 µM (inactive)
